Assay: High-temperature color development rate (A35/A23×100), temperature dependency
Type: physicochemical
Details: binder sheet (binder method)
Excerpt: • [1] Maximum Absorption Wavelength (λmax): The maximum absorption wavelength after color development, measured using a spectrophotometer (instantaneous multichannel photodetector MCPD3000) manufactured by Otsuka Electronics Co., Ltd. was used as an indicator for the color tone during the color development. • [2] […]
Value type: A35/A23 *100 (%)
Answers are plain numbers, in %.

Request: # query: A35/A23 *100 (%) of entry CCCC1(CCC)c2ccccc2-c2c1c1c(c3cc(OC)c(N(c4ccccc4)c4ccc(C)cc4)cc23)OC(c2ccc(OC)cc2)(c2ccc(OC)cc2)C=C1
Result: 68

Request: Query CCCOc1ccc(C2(c3ccc(OCCC)cc3)C=Cc3c4c(c5cc(N(C)c6ccc(C)cc6)c(OC)cc5c3O2)-c2ccccc2C4(CCCCOC)CCCCOC)cc1 next
Result: 70

Respectfully, I request A35/A23 *100 (%) for each entry included below.
1. CCCOc1ccc(C2(c3ccc(OCCC)cc3)C=Cc3c4c(c5cc(N(c6ccc(C)cc6)c6ccc(C)cc6)c(OC)cc5c3O2)-c2ccccc2C4(CCCCOCOC)CCCCOCOC)cc1
2. COc1ccc(C2(c3ccc(OC)cc3)C=Cc3c4c(c5cc(N6CCc7ccccc7C6)c(OC)cc5c3O2)-c2ccccc2C4(C)C)cc1 [Formula (F), reference compound]
3. CCCC1(CCC)c2ccccc2-c2c1c1c(c3cc(OC)c(N(C)c4ccccc4)cc23)OC(c2ccc(OC)cc2)(c2ccc(OC)cc2)C=C1

Result:
1. 70
2. 70
3. 68

====

assay: Residual rate (A90/A0×100) after 90 h accelerated deterioration in xenon weather meter X25, color developing durability; type: physicochemical; conditions: photochromic laminate by coating method; xenon weather meter 90 hours
Value type: Residual rate (%)
Give bare numbers, in %.

Respectfully, I request Residual rate (%) for each entry included below.
1. CCCOc1ccc(C2(c3ccc(OC)cc3)C=Cc3c4c(c5cc(N(c6ccc(C(F)(F)F)cc6)c6ccc(C(F)(F)F)cc6)c(OC)cc5c3O2)-c2ccccc2C4(CCCCOC)CCCCOC)cc1 (stereo not shown) [Example 11 Formula (63)]
2. CCCCCCOc1ccc(C2(c3ccc(OC)cc3)C=Cc3c4c(c5cc(N(c6ccc(C)cc6)c6ccc(OC)cc6)c(OC)cc5c3O2)-c2ccccc2C42CC(C)(C)CC(C)(C)C2)cc1 (stereo not shown) [Example 15 Formula (75)]
3. CCCOc1ccc(C2(c3ccc(OCCC)cc3)C=Cc3c4c(c5cc(N(c6ccc(C)cc6)c6ccc(C)cc6)c(OC)cc5c3O2)-c2ccccc2C4(CCCCOCOC)CCCCOCOC)cc1 [Example 14 Formula (71)]
4. COCCCC1(CCCOC)c2cc(Sc3c(C)cccc3C)ccc2-c2c1c1c(c3cc(OC)c(N(CCOC)c4ccc(C(F)(F)F)cc4)cc23)OC(c2ccc(OC)cc2)(c2ccc(OC)cc2)C=C1 [Example 57 Formula (132)]
5. CCCOc1ccc(C2(c3ccc(OC)cc3)C=Cc3c4c(c5cc(N(C)c6ccccc6)c(C)cc5c3O2)-c2ccc(C)cc2C4(CCCCOC)CCCCOC)cc1 (stereo not shown) [Example 17 Formula (79)]
6. COc1ccc(C2(c3ccc(OC)cc3)C=Cc3c4c(c5cc(N6CCc7ccccc7C6)c(OC)cc5c3O2)-c2ccccc2C4(C)C)cc1 [Formula (F), reference compound]
7. CCCC1(CCC)c2ccccc2-c2c1c1c(c3cc(OC)c(N(C)c4ccccc4)cc23)OC(c2ccc(OC)cc2)(c2ccc(OC)cc2)C=C1 [Example 3 Formula (32)]
8. COCCOCCOCCC1(CCOCCOCCOC)c2cc(-c3ccc(OC(C)C)cc3)ccc2-c2c1c1c(c3cc(OC)c(N(C)c4ccc(C(F)(F)F)cc4)cc23)OC(c2ccc(OC)cc2)(c2ccc(OC)cc2)C=C1 [Example 53 Formula (121)]

Result:
1. 83
2. 75
3. 82
4. 77
5. 78
6. 50
7. 84
8. 76

Respectfully, I request Residual rate (%) for each entry included below.
1. CCCCCCC1(CCCCCC)c2cc(Oc3ccccc3)ccc2-c2c1c1c(c3cc(OC)c(N(c4ccccc4)c4ccc(C)cc4)cc23)OC(c2ccc(OC)cc2)(c2ccc(OCCCC)cc2)C=C1 (stereo not shown) [Example 52 Formula (119)]
2. CCCCOc1ccc(C2(c3ccc(OCCCC)cc3)C=Cc3c4c(c5cc(NC(=O)c6ccccc6)c(OC)cc5c3O2)-c2ccccc2C4(C)C)cc1 [Formula (B), reference compound]
3. COc1ccc(C2(c3ccc(OC)cc3)C=Cc3c4c(c5cc(N6CCOc7ccccc76)c(OC)cc5c3O2)-c2ccccc2C4(C)C)cc1 [Example 19 Formula (83)]
4. COc1ccc(C2(c3ccc(N4CCOCC4)cc3)C=Cc3c4c(c5cc(N6CCCc7ccccc76)c(OC)cc5c3O2)-c2ccc(C)cc2C4(CCCC(F)(F)F)CCCC(F)(F)F)cc1 (stereo not shown) [Example 8 Formula (54)]

Result:
79
68
77
75

Respectfully, I request Residual rate (%) for each entry included below.
1. COc1ccc(C2(c3ccc(OC)cc3)C=Cc3c4c(c5cc(N(C)c6ccccc6)c(OC)cc5c3O2)-c2ccccc2C4(C)C)cc1 [Example 1 Formula (28)]
2. COc1ccc(C2(c3ccc(OC)cc3)C=Cc3c4c(c5cc(Sc6c(C)cccc6C)c(OC)cc5c3O2)-c2ccccc2C4(C)C)cc1 [Formula (C), reference compound]
3. COCCCCC1(CCCCOC)c2ccccc2-c2c1c1c(c3cc(C)c(N(C)c4ccccc4)cc23)OC(c2ccc(C)cc2)(c2ccc(OC)cc2)C=C1 (stereo not shown) [Example 5 Formula (43)]
4. CCCOc1ccc(C2(c3ccc(OCCC)cc3)C=Cc3c4c(c5cc(N6CCOc7cc(C)ccc76)c(OC)cc5c3O2)-c2ccc(-c3ccc(C(F)(F)F)cc3)cc2C4(CCOC)CCOC)cc1 [Example 48 Formula (106)]

Result:
1. 83
2. 73
3. 73
4. 77

====

Assay: High-temperature color development rate (A35/A23×100), temperature dependency
Format: physicochemical
Conditions: cured product by kneading method, 1 mm
Source text: • [1] Maximum Absorption Wavelength (λmax): The maximum absorption wavelength after color development, measured using a spectrophotometer (instantaneous multichannel photodetector MCPD3000) manufactured by Otsuka Electronics Co., Ltd. was used as an indicator for the color tone during the color development. • [2] […]
Value type: A35/A23 *100 (%)
Numbers only, in %.

Use the examples below as a reference point.
Request: # query: A35/A23 *100 (%) of entry CCCC1(CCC)c2ccccc2-c2c1c1c(c3cc(OC)c(N4CCOc5ccccc54)cc23)OC(c2ccc(OC)cc2)(c2ccc(OC)cc2)C=C1 [Example 10 Formula (59)]
Result: 68

Request: Query COc1ccc(C2(c3ccc(OC)cc3)C=Cc3c4c(c5cc(N(C)c6ccccc6)c(OC)cc5c3O2)-c2ccccc2C4(C)C)cc1 [Example 1 Formula (28)] next
Result: 70

Request: Query CCCC1(CCC)c2ccccc2-c2c1c1c(c3cc(OC)c(N(C)c4ccccc4)cc23)OC(c2ccc(OC)cc2)(c2ccc(OC)cc2)C=C1 [Example 3 Formula (32)] next
Result: 69

Request: Query CCCOc1ccc(C2(c3ccc(OCCC)cc3)C=Cc3c4c(c5cc(N(C)c6ccc(C)cc6)c(OC)cc5c3O2)-c2ccccc2C4(CCCCOC)CCCCOC)cc1 [Example 20 Formula (85)] next
Result: 70

Request: Query COc1ccc(C2(c3ccc(OC)cc3)C=Cc3c4c(c5cc(N6CCOc7ccccc76)c(OC)cc5c3O2)-c2ccccc2C4(C)C)cc1 [Example 19 Formula (83)] next
Result: 67

Respectfully, I request A35/A23 *100 (%) for each entry included below.
1. CCCCCCOc1ccc(C2(c3ccc(OC)cc3)C=Cc3c4c(c5cc(N(c6ccc(C)cc6)c6ccc(OC)cc6)c(OC)cc5c3O2)-c2ccccc2C42CC(C)(C)CC(C)(C)C2)cc1 (centres unmarked) [Example 15 Formula (75)]
2. CCCOc1ccc(C2(c3ccc(OC)cc3)C=Cc3c4c(c5cc(N(C)c6ccccc6)c(C)cc5c3O2)-c2ccc(C)cc2C4(CCCCOC)CCCCOC)cc1 (centres unmarked) [Example 17 Formula (79)]
3. COc1ccc(C2(c3ccc(OC)cc3)C=Cc3c4c(c5cc(N6CCOCC6)c(OC)cc5c3O2)-c2ccccc2C4(C)C)cc1 [Formula (A), reference compound]
4. COc1ccc(C2(c3ccc(OC)cc3)C=Cc3c4c(c5cc(N(C)c6ccc(F)cc6)c(OC)cc5c3O2)-c2ccccc2C4(C)C)cc1 [Example 4 Formula (34)]
5. COc1ccc(C2(c3ccc(OC)cc3)C=Cc3c4c(c5cc(N(c6ccccc6)c6ccccc6)c(OC)cc5c3O2)-c2ccccc2C4(C)C)cc1 [Example 2 Formula (30)]
6. COc1ccc(C2(c3ccc(N4CCOCC4)cc3)C=Cc3c4c(c5cc(N6CCCc7ccccc76)c(OC)cc5c3O2)-c2ccc(C)cc2C4(CCCC(F)(F)F)CCCC(F)(F)F)cc1 (centres unmarked) [Example 8 Formula (54)]

Result:
63
69
70
67
71
66

Sourced from patent EP4692071A1
